# Test system: Weril cells
# MEASUREMENT_CONTEXT: read-out: LC50; Weril cells transfected with p53 siRNA
EXPERIMENTAL_READOUT: CC50 (µM)

>>> print(df.to_string())
                                   compound  study_system  result_value
0  COc1ccc(C2=N[C@@H](c3ccc(Cl)cc3)[C@@H](c3ccc(Cl)cc3)N2C(=O)N2CCNC(=O)C2)c(OC(C)C)c1 [nutlin-3]   Weril cells            10

---

# Test system: Weril cells
# MEASUREMENT_CONTEXT: read-out: LC50 (50% lethal concentration); 72 hours, total racemic drug
EXPERIMENTAL_READOUT: CC50 (µM)

>>> df
                               query_smiles  study_system  experimental_readout  result_value
0  COc1ccc(C2=N[C@@H](c3ccc(Cl)cc3)[C@@H](c3ccc(Cl)cc3)N2C(=O)N2CCNC(=O)C2)c(OC(C)C)c1   Weril cells                  CC50           0.7

---

# Test system: Weril cells
# MEASUREMENT_CONTEXT: read-out: LC50; Weril cells transfected with control siRNA
EXPERIMENTAL_READOUT: CC50

>>> print(df.to_string())
                               query_smiles  result_value
0  COc1ccc(C2=N[C@@H](c3ccc(Cl)cc3)[C@@H](c3ccc(Cl)cc3)N2C(=O)N2CCNC(=O)C2)c(OC(C)C)c1        600 nM

---

# Test system: Y79 cells
# METHOD_NOTES: Retinoblastoma cell viability, Y79 cells
# Type: cell-based, human
# MEASUREMENT_CONTEXT: 72 hours, total racemic drug; read-out: LC50 (the source's name)
EXPERIMENTAL_READOUT: CC50 (nM)

                               query_smiles  experimental_readout  result_value
0  COc1ccc(C2=N[C@@H](c3ccc(Cl)cc3)[C@@H](c3ccc(Cl)cc3)N2C(=O)N2CCNC(=O)C2)c(OC(C)C)c1                  CC50          2000
